The origin of these recorded values is ChEMBL document CHEMBL5149996.

Molecular target: Proteasome Macropain subunit MB1 (Homo sapiens, UniProt P28074)
Sequence (P28074 whole entry): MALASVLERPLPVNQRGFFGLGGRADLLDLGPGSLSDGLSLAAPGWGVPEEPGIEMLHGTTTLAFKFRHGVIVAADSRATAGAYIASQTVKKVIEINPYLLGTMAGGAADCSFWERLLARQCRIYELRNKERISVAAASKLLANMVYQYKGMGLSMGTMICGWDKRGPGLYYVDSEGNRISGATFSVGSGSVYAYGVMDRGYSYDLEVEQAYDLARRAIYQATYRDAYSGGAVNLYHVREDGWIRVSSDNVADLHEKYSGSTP
Test: Inhibition of 20S proteasome beta5 subunit in human A549 cells using Suc-LLVY-luciferin substrate preincubated for 2 hrs followed by substrate addition and measured after 30 mins by luminometric analysis
Format: cell-based
Please go through the items and note down their IC50.
Answers are plain numbers, in µM.

Provide IC50 values for the following items, in order.
1. Cc1c(Cl)ccc2c(C[C@H](NC(=O)Cc3ccccc3)B(O)O)coc12
2. N#Cc1ccccc1CC(=O)N[C@@H](C[C@@H]1COc2ccccc21)B(O)O

Result:
1: 7.33; 2: 2.52

Provide IC50 values for the following items, in order.
1. O=C(Cc1ccccc1)N[C@@H](Cc1coc2c(Cl)cccc12)B(O)O
2. O=C(N[C@@H](Cc1coc2ccccc12)B(O)O)[C@@H]1CCOC1

Result:
2.06
1.69

###

Tested on: 20S immunoproteasome beta-5i subunit
Assay: Selectivity ratio of IC50 for cytotoxicity against human primary hepatocytes to IC50 for inhibition of 20S immunoproteasome beta-5i subunit in human PBMC
Type: toxicity
Settings: read-out: Ratio IC50
resultType: selectivity ratio
Give bare numbers.

Q: Endpoint output: selectivity ratio of `O=C(N[C@@H](Cc1coc2ccccc12)B(O)O)[C@@H]1C[C@H]2CC[C@@H]1O2` . Value?
Result: 10000

###

Target: Proteasome subunit beta type-8 (Homo sapiens, UniProt P28062)
Sequence (P28062 whole entry): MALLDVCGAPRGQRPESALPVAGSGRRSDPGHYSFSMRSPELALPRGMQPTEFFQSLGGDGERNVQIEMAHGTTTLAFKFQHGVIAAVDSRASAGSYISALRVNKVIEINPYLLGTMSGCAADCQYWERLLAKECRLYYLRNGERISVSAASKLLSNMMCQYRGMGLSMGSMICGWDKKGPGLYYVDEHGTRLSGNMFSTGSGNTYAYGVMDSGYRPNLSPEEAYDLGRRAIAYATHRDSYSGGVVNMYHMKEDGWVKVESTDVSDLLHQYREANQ
Test: Inhibition of 20S immunoproteasome beta-5i subunit in human PBMC using Ac-ANW-luciferin substrate preincubated for 2 hrs followed by substrate addition and measured after 30 mins by luminometric analysis
Type: cell-based
Please go through the items and note down their pIC50.
One number for each entry, as −log10 of the molar value.

compoundStructureString: O=C(Cc1ccccc1)N[C@@H](C[C@@H]1COc2c(Cl)cccc21)B(O)O
pIC50: 7.60

Provide pIC50 values for the following items, in order.
1. O=C(Cc1ccccc1)N[C@@H](Cc1coc2ccccc12)B(O)O
2. N#Cc1ccccc1CC(=O)N[C@@H](C[C@@H]1COc2c(Cl)cccc21)B(O)O
3. N#Cc1ccccc1CC(=O)N[C@@H](C[C@@H]1COc2ccccc21)B(O)O
4. Cc1cccc2c(C[C@H](NC(=O)Cc3ccccc3)B(O)O)coc12

Result:
[7.85, 7.29, 7.70, 7.54]

###

Please go through the items and note down their clearance.
Test: Clearance in iv dosed mouse
Type: ADME, organism-based
Conditions: in vivo
Answers are plain numbers, in mL/min/kg.

compoundStructureString: O=C(N[C@@H](Cc1coc2ccccc12)B(O)O)[C@@H]1C[C@H]2CC[C@@H]1O2
quantitativeResult: 3.17

# evaluate next
Q: Endpoint output: clearance of `N#Cc1ccccc1CC(=O)N[C@@H](C[C@@H]1COc2ccccc21)B(O)O` . Value?
Result: 32.8

###

Please go through the items and note down their pIC50.
Biological target: Proteasome subunit beta type-6 (Homo sapiens)
Sequence (P28072 whole entry): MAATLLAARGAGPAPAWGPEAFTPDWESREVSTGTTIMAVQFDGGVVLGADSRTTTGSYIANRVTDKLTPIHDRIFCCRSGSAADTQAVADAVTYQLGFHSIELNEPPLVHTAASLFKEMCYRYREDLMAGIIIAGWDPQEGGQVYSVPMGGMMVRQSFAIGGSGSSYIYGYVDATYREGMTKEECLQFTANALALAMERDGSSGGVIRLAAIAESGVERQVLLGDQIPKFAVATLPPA
Test: Inhibition of human 20S […] beta1 subunit using Ac-nLPnLD-AMC as substrate preincubated for 2 hrs followed by substrate addition and measured after 1 hr by fluorescence intensity assay
Answers are plain numbers, as −log10 of the molar value.

compoundStructureString: CCc1cccc(C[C@H](NC(=O)[C@H](Cc2ccccc2)NC(=O)c2cnccn2)B(O)O)c1
targetUnderTest: Proteasome subunit beta type-6 (Homo sapiens)
pIC50: 5.07

Q: Endpoint output: pIC50 of `CC(C)C[C@H](NC(=O)CNC(=O)c1cc(Cl)ccc1Cl)B(O)O` . Value?
Result: 7.19
